- study_target: T1, human IL-17A/F heterodimer (human, UniProt Q16552 24-155; Q96PD4 31-163, limits assumed, biotinylated with Sulfo-NHS-LC-Biotin in the AlphaScreen assays only)
- T1 construct: also called hIL-17A/F
- T1 sequence (Q16552 24-155 limits assumed, chain 1 of 2): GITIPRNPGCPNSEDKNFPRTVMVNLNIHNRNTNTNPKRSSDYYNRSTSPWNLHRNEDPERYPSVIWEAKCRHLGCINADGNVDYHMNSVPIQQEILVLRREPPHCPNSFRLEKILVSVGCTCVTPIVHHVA
- T1 sequence (Q96PD4 31-163 limits assumed, chain 2 of 2): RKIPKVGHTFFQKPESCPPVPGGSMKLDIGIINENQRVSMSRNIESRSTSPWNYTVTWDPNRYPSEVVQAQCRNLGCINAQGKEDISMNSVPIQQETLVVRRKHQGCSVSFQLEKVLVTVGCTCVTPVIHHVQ
- experiment: AlphaScreen competition, hIL-17A/F - IL-17RC-Fc
pIC50: −log10 of the molar value.

>  <binder>
04F09 (VHH, Class 2 Nanobody (anti-IL-17A and IL-17A/F); not shown: c-myc, His6 tag) VHH: EVQLVESGGGLVQPGGSLRLSCAASGRTFSTHAMGWFRQAPGKERDFVAAIRWSDGSSFYADSVKGRFTISRDNAKNAVYLQSNSLKSEDTAVYVCYADVEGPTALHKYWGRGTQVTVSS

>  <pIC50>
8.50

$$$$
>  <binder>
09G10 (VHH, Class 2 Nanobody (anti-IL-17A and IL-17A/F); not shown: c-myc, His6 tag) VHH: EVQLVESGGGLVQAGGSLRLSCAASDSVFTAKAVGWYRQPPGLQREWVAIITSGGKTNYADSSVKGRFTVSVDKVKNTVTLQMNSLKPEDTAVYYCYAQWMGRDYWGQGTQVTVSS

>  <pIC50>
9.92

$$$$
>  <binder>
09D10 (VHH, Class 2 Nanobody (anti-IL-17A and IL-17A/F); not shown: c-myc, His6 tag) VHH: EVQLVESGGGLVQAGGSLSLSCAASGSVFRIDVMRWHRQAPGKQREFLASIASGGTTNYADSVKGRFTISRDNAKNTVYLQMNSLKPEDTAVYYCGANAESGPYTYWGLGTQVTVSS

>  <pIC50>
8.06

$$$$
>  <binder>
04A02 (VHH, Class 2 Nanobody (anti-IL-17A and IL-17A/F); not shown: c-myc, His6 tag) VHH: EVQLVESGGGLVQPGGSLRLSCAASRNINIINYMAWYRQAPGNQRELVAAMTSDATTEYADSVKGRFTISRDIPENTVYLQMNSLKPEDTAVYYCNAKGIWDYLGRRDFGDYWGQGTQVTVSS

>  <pIC50>
8.50

$$$$
>  <binder>
08A08 (VHH, Class 3 Nanobody (anti-IL-17F); not shown: c-myc, His6 tag) VHH: EVQLVESGGGLVQAGGSLRLSCAASGRTFRPYRMGWFRRAPGKAREFVTLISWSSGRTSYADSVKGRFTISRDSAKNAVYLQMDNLKPEDTAVYFCAVDLSGDAVYDSWGQGTQVTVSS

>  <pIC50>
7.71

$$$$
>  <binder>
13B03 (VHH, Class 4 Nanobody (cross-reactive: anti-IL-17A, IL-17F and IL-17A/F); also called IL17MS13B03; not shown: c-myc, His6 tag) VHH: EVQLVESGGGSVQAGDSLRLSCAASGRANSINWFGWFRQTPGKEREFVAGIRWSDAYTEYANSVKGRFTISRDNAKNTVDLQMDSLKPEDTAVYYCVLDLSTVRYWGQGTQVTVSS

>  <pIC50>
10.51

$$$$
>  <binder>
11A06 (VHH, Class 2 Nanobody (anti-IL-17A and IL-17A/F); not shown: c-myc, His6 tag) VHH: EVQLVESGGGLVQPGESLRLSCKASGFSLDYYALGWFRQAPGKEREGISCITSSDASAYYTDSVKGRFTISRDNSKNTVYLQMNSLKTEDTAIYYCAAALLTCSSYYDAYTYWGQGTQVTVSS

>  <pIC50>
10.41

$$$$
>  <binder>
02A10 (VHH, Class 2 Nanobody (anti-IL-17A and IL-17A/F); not shown: c-myc, His6 tag) VHH: EVQLVESGGGLVQPGGSLRLSCAASGFALGYYAIGWFRQAPGKEREGVSCDSSSDGRTYYGDSVKGRFTISTDSAKNTVYLQMNSLKPEDTAVYYCATCTDFEYDYWGQGTQVTVSS

>  <pIC50>
9.61

$$$$

Every entry's value here was drawn from patent US20210130452A1.
